Molecular target: rat relaxin family peptide receptor 2 (RXFP2) (rat) (UniProt Q5ECL0)
Sequence (Q5ECL0 entry or part of it): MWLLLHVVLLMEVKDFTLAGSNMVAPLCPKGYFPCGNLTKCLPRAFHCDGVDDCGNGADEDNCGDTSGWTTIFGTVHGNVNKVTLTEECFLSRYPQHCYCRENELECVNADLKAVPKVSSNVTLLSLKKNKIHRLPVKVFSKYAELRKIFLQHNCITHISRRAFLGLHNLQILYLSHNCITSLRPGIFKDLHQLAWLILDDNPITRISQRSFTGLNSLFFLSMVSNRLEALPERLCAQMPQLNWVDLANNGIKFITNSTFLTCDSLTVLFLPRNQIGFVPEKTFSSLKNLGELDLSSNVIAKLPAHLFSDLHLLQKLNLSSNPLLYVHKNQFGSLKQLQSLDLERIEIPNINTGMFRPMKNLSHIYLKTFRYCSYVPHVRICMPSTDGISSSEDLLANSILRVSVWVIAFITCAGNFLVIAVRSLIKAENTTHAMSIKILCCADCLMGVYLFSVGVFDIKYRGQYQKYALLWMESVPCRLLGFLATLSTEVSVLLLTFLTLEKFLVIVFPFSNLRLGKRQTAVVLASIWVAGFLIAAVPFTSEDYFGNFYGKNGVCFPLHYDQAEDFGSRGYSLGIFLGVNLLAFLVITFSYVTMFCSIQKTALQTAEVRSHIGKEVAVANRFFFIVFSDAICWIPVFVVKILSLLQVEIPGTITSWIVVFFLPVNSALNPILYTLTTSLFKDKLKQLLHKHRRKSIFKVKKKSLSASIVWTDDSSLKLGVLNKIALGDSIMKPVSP
observation.type: % Max Response, INSL3 (EC80)-stimulated cAMP in HEK293 stably expressing rat RXFP2 (%)
Respond numerically; units are % and should not be typed.

Answer with reported % Max Response, INSL3 (EC80)-stimulated cAMP in HEK293 stably expressing rat RXFP2 of RXFP2 mAb 2D4 (antibody, V domains shown) VH: QVQLKESGPGLVAPSQSLSITCTVSGFSLTTYGISWVRQPPGKGLEWLGVIWTGGGTNYNSALKSRLSISKDNSKSQVFLKMNSLQTDDTARYYCARTEGYYVMDYWGQGTSVTVSS VL: DIQMTQSPASLSVSVGETVTITCRASENIYSNLVWYQQKQGKSPQLLVYAATNLADGVPSRFSGSGSGTQYSLKINNLQSEDFGTYYCQHFWGPPWTFGGGTKLEIK
86.8

Answer with reported % Max Response, INSL3 (EC80)-stimulated cAMP in HEK293 stably expressing rat RXFP2 of RXFP2 mAb 3H1 (antibody, V domains shown) VH: QVQLKETGPGLVAPSQSLSITCTVSGFSLTNYGVNWVRQPPGKGLEWLVVIWSDGSTNYNSALKSRLSISKDNSKSQVFLKMNSLQTDDTAMYYCARQQGYYAMDYWGQGTSVIVSS VL: DIQMTQSPASLSVSVGETVTITCRASENIYSNLAWYQQKQGKSPQLLVYAVTNLADGVPSRFSGSGSGTQYSLKINSLQSEDFGSYYCQHFWGPPYTFGGGTKLEIK
71.6

Answer with reported % Max Response, INSL3 (EC80)-stimulated cAMP in HEK293 stably expressing rat RXFP2 of RXFP2 mAb 3F3 (antibody, V domains shown) VH: QVQLQQPGSVLVRPGASVKLSCKASGYIFTSYWMHWVKQRPGQGLEWIGEIYPNSGRTSYNEKFKGKATVTVDTSSSTAYVDLSSLTSEDSAVYYCASGGHWFAYWGQGTLVTVSA VL: DIQMTQSSSSFSVSLGDRVTITCKASEDIYNRLAWYQQKPGNAPRLLISGATSLEAGVPSRFSGSGSGKDYTLSITSLQTEDVSTYYCQQYWITPYTFGGGTKLEIK
78.5
